These measurements were taken from patent US20260248972A1.

Reported tissue uptake at 72 h by item:
- method: in vivo
- condition-label: BALB/c nude, mouse, in vivo, iv, total radioactivity, % ID/g Tumor
Only the number, expressed in %ID/g, is required.

These recorded examples may help you get a feel for the data.
Any idea what its tissue uptake at 72 h is? The molecule is C[C@@H](O)[C@H](NC(=O)[C@@H]1CSSC[C@H](NC(=O)[C@@H](Cc2ccccc2)NC(=O)[C@H](CCCCNC(=O)COCCOCCNC(=O)c2cccc(NC(=O)N[C@@H]3CN(C4CCCCC4)c4ccccc4N(CC(=O)C(C)(C)C)C3=O)c2)NC(=O)CN2CCN(CC(=O)O)CCN(CC(=O)O)CCN(CC(=O)O)CC2)C(=O)N[C@@H](Cc2ccc(O)cc2)C(=O)N[C@H](Cc2c[nH]c3ccccc23)C(=O)N[C@@H](CCCCN)C(=O)N[C@@H]([C@@H](C)O)C(=O)N1)C(=O)O [^177Lu-I-36, metal not drawn] 36.4

Queued: C[C@@H](O)[C@H](NC(=O)[C@@H]1CSSC[C@H](NC(=O)[C@@H](Cc2ccccc2)NC(=O)CN2CCN(CC(=O)O)CCN(CC(=O)O)CCN(CC(=O)O)CC2)C(=O)N[C@@H](Cc2ccc(O)cc2)C(=O)N[C@H](Cc2c[nH]c3ccccc23)C(=O)N[C@@H](CCCCN)C(=O)N[C@@H]([C@@H](C)O)C(=O)N1)C(=O)O [^177Lu-C-1, metal not drawn, reference compound] 4.33

# evaluate next
Any idea what its tissue uptake at 72 h is? The molecule is C[C@@H](O)[C@H](NC(=O)[C@@H]1CSSC[C@H](NC(=O)[C@@H](Cc2ccccc2)NC(=O)COCCOCCNC(=O)COCCOCCNC(=O)[C@H](CCCCNC(=O)c2cccc(NC(=O)N[C@@H]3CN(C4CCCCC4)c4ccccc4N(CC(=O)C(C)(C)C)C3=O)c2)NC(=O)CN2CCN(CC(=O)O)CCN(CC(=O)O)CCN(CC(=O)O)CC2)C(=O)N[C@@H](Cc2ccc(O)cc2)C(=O)N[C@H](Cc2c[nH]c3ccccc23)C(=O)N[C@@H](CCCCN)C(=O)N[C@@H]([C@@H](C)O)C(=O)N1)C(=O)O [Compound 177Lu-I-39, metal not drawn] 9.48
